Listed next: entries and their corresponding normalised inhibition (eCFP-eYFP dual reporter).
Target: DENND5A
Test: reporter assay of Huesken 2005; also: test concentration or dose not given here
Settings: siRNA
Oligonucleotides are written 5' to 3', each unit as a sugar letter and its base; * is a phosphorothioate linkage, no mark a phosphodiester; rarer units and linkages stand in square brackets, end groups in braces. Plain capitals give the bases only. d = 2'-deoxy (DNA); r = 2'-OH (RNA)
REPORTED_ENDPOINT: normalised inhibition (eCFP-eYFP dual reporter) (%)

substance="sense rCrArGrUrUrCrCrCrCrArArCrArArArUrUrGrGdTdT / antisense rCrCrArArUrUrUrGrUrUrGrGrGrGrArArCrUrGdTdG" quantity_unit=% result=67.9
substance="sense rCrArUrUrCrArGrArUrCrCrGrGrGrArArGrUrUdTdT / antisense rArArCrUrUrCrCrCrGrGrArUrCrUrGrArArUrGdTdT" quantity_unit=% result=74.7
substance="sense rArCrArUrGrArArGrArUrUrGrGrArCrArArGrGdTdT / antisense rCrCrUrUrGrUrCrCrArArUrCrUrUrCrArUrGrUdCdA" quantity_unit=% result=70.5
substance="sense rArGrGrArGrArArUrUrGrGrGrUrGrArGrArCrAdTdT / antisense rUrGrUrCrUrCrArCrCrCrArArUrUrCrUrCrCrUdGdA" quantity_unit=% result=70.5
substance="sense rGrGrUrGrCrCrGrCrUrCrCrCrArCrCrUrCrCrUdTdT / antisense rArGrGrArGrGrUrGrGrGrArGrCrGrGrCrArCrCdTdC" quantity_unit=% result=39
substance="sense rUrGrUrUrUrGrCrArGrArUrUrArUrGrArGrGrCdTdT / antisense rGrCrCrUrCrArUrArArUrCrUrGrCrArArArCrAdTdC" quantity_unit=% result=38.5

====

Target: UBE2D3
Assay: reporter assay of Huesken 2005
Conditions: siRNA
Oligonucleotides are given in HELM: sugar(base)linkage, 5' to 3'; d 2'-deoxyribose, r ribose, m 2'-O-methylribose, p phosphate. ss, as = sense and antisense strand
Listed next: entries and their corresponding normalised inhibition (eCFP-eYFP dual reporter).
REPORTED_ENDPOINT: normalised inhibition (eCFP-eYFP dual reporter) (%)

substance=RNA1{r(U)p.r(C)p.r(A)p.r(C)p.r(U)p.r(G)p.r(C)p.r(U)p.r(A)p.r(U)p.r(G)p.r(U)p.r(G)p.r(A)p.r(U)p.r(C)p.r(C)p.r(A)p.r(A)p.d(T)p.d(T)}|RNA2{r(U)p.r(U)p.r(G)p.r(G)p.r(A)p.r(U)p.r(C)p.r(A)p.r(C)p.r(A)p.r(U)p.r(A)p.r(G)p.r(C)p.r(A)p.r(G)p.r(U)p.r(G)p.r(A)p.d(A)p.d(C)}$$$RNA1{StrandType:ss}|RNA2{StrandType:as}$ quantity_unit=% result=95.2
substance=RNA1{r(G)p.r(G)p.r(G)p.r(A)p.r(U)p.r(G)p.r(A)p.r(U)p.r(A)p.r(U)p.r(G)p.r(U)p.r(U)p.r(U)p.r(C)p.r(A)p.r(U)p.r(U)p.r(G)p.d(T)p.d(T)}|RNA2{r(C)p.r(A)p.r(A)p.r(U)p.r(G)p.r(A)p.r(A)p.r(A)p.r(C)p.r(A)p.r(U)p.r(A)p.r(U)p.r(C)p.r(A)p.r(U)p.r(C)p.r(C)p.r(C)p.d(C)p.d(A)}$$$RNA1{StrandType:ss}|RNA2{StrandType:as}$ quantity_unit=% result=95
substance=RNA1{r(U)p.r(A)p.r(U)p.r(C)p.r(A)p.r(A)p.r(G)p.r(G)p.r(C)p.r(G)p.r(G)p.r(U)p.r(G)p.r(U)p.r(A)p.r(U)p.r(U)p.r(C)p.r(U)p.d(T)p.d(T)}|RNA2{r(A)p.r(G)p.r(A)p.r(A)p.r(U)p.r(A)p.r(C)p.r(A)p.r(C)p.r(C)p.r(G)p.r(C)p.r(C)p.r(U)p.r(U)p.r(G)p.r(A)p.r(U)p.r(A)p.d(T)p.d(G)}$$$RNA1{StrandType:ss}|RNA2{StrandType:as}$ quantity_unit=% result=99.5
substance=RNA1{r(U)p.r(C)p.r(C)p.r(A)p.r(U)p.r(U)p.r(U)p.r(G)p.r(U)p.r(U)p.r(C)p.r(A)p.r(C)p.r(U)p.r(G)p.r(C)p.r(U)p.r(A)p.r(U)p.d(T)p.d(T)}|RNA2{r(A)p.r(U)p.r(A)p.r(G)p.r(C)p.r(A)p.r(G)p.r(U)p.r(G)p.r(A)p.r(A)p.r(C)p.r(A)p.r(A)p.r(A)p.r(U)p.r(G)p.r(G)p.r(A)p.d(T)p.d(A)}$$$RNA1{StrandType:ss}|RNA2{StrandType:as}$ quantity_unit=% result=98.4
substance=RNA1{r(C)p.r(C)p.r(A)p.r(U)p.r(U)p.r(U)p.r(G)p.r(U)p.r(U)p.r(C)p.r(A)p.r(C)p.r(U)p.r(G)p.r(C)p.r(U)p.r(A)p.r(U)p.r(G)p.d(T)p.d(T)}|RNA2{r(C)p.r(A)p.r(U)p.r(A)p.r(G)p.r(C)p.r(A)p.r(G)p.r(U)p.r(G)p.r(A)p.r(A)p.r(C)p.r(A)p.r(A)p.r(A)p.r(U)p.r(G)p.r(G)p.d(A)p.d(T)}$$$RNA1{StrandType:ss}|RNA2{StrandType:as}$ quantity_unit=% result=94.5

====

Listed next: entries and their corresponding normalised inhibition (eCFP-eYFP dual reporter).
Molecular target: UBE2W
Experiment: reporter assay of Huesken 2005
Conditions: siRNA
Oligonucleotides are written 5' to 3', each unit as a sugar letter and its base; * is a phosphorothioate linkage, no mark a phosphodiester; rarer units and linkages stand in square brackets, end groups in braces. Plain capitals give the bases only. d = 2'-deoxy (DNA); r = 2'-OH (RNA)
REPORTED_ENDPOINT: normalised inhibition (eCFP-eYFP dual reporter) (%)

substance="sense rCrCrUrCrCrUrGrGrArArUrGrArCrCrUrUrArAdTdT / antisense rUrUrArArGrGrUrCrArUrUrCrCrArGrGrArGrGdTdG" quantity_unit=% result=99.3
substance="sense rCrArArGrGrArArArArGrArGrArCrGrArCrCrAdTdT / antisense rUrGrGrUrCrGrUrCrUrCrUrUrUrUrCrCrUrUrGdCdA" quantity_unit=% result=110
substance="sense rUrGrArCrCrUrUrArArArUrGrArGrArArGrArGdTdT / antisense rCrUrCrUrUrCrUrCrArUrUrUrArArGrGrUrCrAdTdT" quantity_unit=% result=75
substance="sense rCrCrArArArGrArArArArCrArArArArUrGrGrUdTdT / antisense rArCrCrArUrUrUrUrGrUrUrUrUrCrUrUrUrGrGdAdT" quantity_unit=% result=101
substance="sense rUrCrCrUrGrUrUrCrArUrCrCrUrCrArUrGrUrUdTdT / antisense rArArCrArUrGrArGrGrArUrGrArArCrArGrGrAdAdT" quantity_unit=% result=108
substance="sense rUrGrUrUrUrArUrCrCrArUrUrCrUrArArCrArGdTdT / antisense rCrUrGrUrUrArGrArArUrGrGrArUrArArArCrAdGdA" quantity_unit=% result=66.2
substance="sense rArArUrUrArCrArCrArGrUrGrGrArUrUrGrUrAdTdT / antisense rUrArCrArArUrCrCrArCrUrGrUrGrUrArArUrUdGdA" quantity_unit=% result=112
substance="sense rUrUrArCrArCrArGrUrGrGrArUrUrGrUrArGrAdTdT / antisense rUrCrUrArCrArArUrCrCrArCrUrGrUrGrUrArAdTdT" quantity_unit=% result=92.6
substance="sense rArUrGrUrUrUrArUrArGrCrArArUrGrGrUrCrAdTdT / antisense rUrGrArCrCrArUrUrGrCrUrArUrArArArCrArUdGdA" quantity_unit=% result=96.2
substance="sense rArGrUrCrGrArUrArUrCrCrUrUrUrUrGrArCrUdTdT / antisense rArGrUrCrArArArArGrGrArUrArUrCrGrArCrUdAdC" quantity_unit=% result=81.4
substance="sense rGrArArGrArCrUrGrGrUrCrCrCrCrArGrCrGrCdTdT / antisense rGrCrGrCrUrGrGrGrGrArCrCrArGrUrCrUrUrCdTdG" quantity_unit=% result=80.5
substance="sense rCrGrArUrArUrCrCrUrUrUrUrGrArCrUrCrUrCdTdT / antisense rGrArGrArGrUrCrArArArArGrGrArUrArUrCrGdAdC" quantity_unit=% result=85.7

====

Biological target: UBE2T
Assay: reporter assay of Huesken 2005
Conditions: siRNA
Oligonucleotides are written 5' to 3', each unit as a sugar letter and its base; * is a phosphorothioate linkage, no mark a phosphodiester; rarer units and linkages stand in square brackets, end groups in braces. Plain capitals give the bases only. d = 2'-deoxy (DNA); r = 2'-OH (RNA)
REPORTED_ENDPOINT: normalised inhibition (eCFP-eYFP dual reporter) (%)

substance="sense rGrArArGrArGrArUrGrCrUrUrGrArUrArArUrCdTdT / antisense rGrArUrUrArUrCrArArGrCrArUrCrUrCrUrUrCdCdT" test_target=UBE2T result=85.9
substance="sense rGrArArGrGrCrCrArGrUrCrArGrCrUrArGrUrAdTdT / antisense rUrArCrUrArGrCrUrGrArCrUrGrGrCrCrUrUrCdCdT" test_target=UBE2T result=91.9
substance="sense rCrCrArArArUrGrGrArUrGrArCrCrUrGrCrGrAdTdT / antisense rUrCrGrCrArGrGrUrCrArUrCrCrArUrUrUrGrGdTdC" test_target=UBE2T result=95.3
substance="sense rUrGrUrUrCrUrCrArArArUrUrGrCrCrArCrCrAdTdT / antisense rUrGrGrUrGrGrCrArArUrUrUrGrArGrArArCrAdTdC" test_target=UBE2T result=53.3
substance="sense rArGrUrArGrGrCrArUrArGrArArArArGrArArAdTdT / antisense rUrUrUrCrUrUrUrUrCrUrArUrGrCrCrUrArCrUdAdG" test_target=UBE2T result=102
substance="sense rCrGrArGrCrUrCrArArArUrArUrUrArGrGrUrGdTdT / antisense rCrArCrCrUrArArUrArUrUrUrGrArGrCrUrCrGdCdA" test_target=UBE2T result=90
